Source of measurements: ChEMBL document CHEMBL3425432

targetSystem: Tyrosine-protein phosphatase non-receptor type 1 (Homo sapiens) (UniProt P18031)
Sequence (P18031 whole entry): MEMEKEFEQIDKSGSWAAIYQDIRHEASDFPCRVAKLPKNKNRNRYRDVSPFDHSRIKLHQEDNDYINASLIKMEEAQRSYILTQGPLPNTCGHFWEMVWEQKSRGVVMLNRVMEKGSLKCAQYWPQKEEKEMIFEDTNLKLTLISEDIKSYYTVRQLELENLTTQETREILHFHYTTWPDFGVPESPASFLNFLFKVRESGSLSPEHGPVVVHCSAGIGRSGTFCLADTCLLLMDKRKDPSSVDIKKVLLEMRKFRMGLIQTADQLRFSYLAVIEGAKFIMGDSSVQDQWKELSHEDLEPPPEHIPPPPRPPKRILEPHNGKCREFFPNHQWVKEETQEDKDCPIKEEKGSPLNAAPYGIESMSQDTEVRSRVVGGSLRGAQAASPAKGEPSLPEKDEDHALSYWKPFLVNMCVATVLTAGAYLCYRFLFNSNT
assayComment: Binding affinity to PTP1B in human U2OS cells by SDS-PAGE based pull-down assay
Type: cell-based
The source made the active and inactive calls. The calls are words filed in the database; no cut-off is given here. *1 amine or outer side, *2 acyl side, *3 side chain or, on linkers, in order; H or OH if unused. Where a SMILES comes first, the peptide text is derived from it. [ ]: non-standard residue; d: D form. The star is where a group is joined. F2Pmp = N[C@@H](Cc1ccc(C(F)(F)P(=O)(O)O)cc1)C(=O)O; Biotin = O=C1N[C@H]2[C@H](CS[C@H]2CCCCC(=O)*)N1; X1 = [N-]=[N+]=N[C@@H](CCCCN[*:1])C(=O)[*:2]; Pra = C#CC[C@H](N)C(=O)O
Labels: true (active), false (inactive)

1) CC(=O)N[C@@H](CCCCNC(=O)CCCC[C@@H]1SC[C@@H]2NC(=O)N[C@@H]21)C(=O)N[C@@H](CCC(=O)O)C(=O)N1CCC[C@H]1C(=O)N[C@@H](CCC(N)=O)C(=O)N[C@@H](Cc1ccc(C(F)(F)P(=O)(O)O)cc1)C(=O)N[C@@H](CCC(N)=O)C(=O)N1CCC[C@H]1C(=O)NCC(=O)N[C@@H](CCC(=O)O)C(=O)N[C@@H](CC(N)=O)C(=O)N[C@@H](CC(C)C)C(N)=O (Ac-K(Biotin)EPQ[F2Pmp]QPGENL-NH2) = true
2) NC(=O)CC[C@@H]1NC(=O)[C@@H]2CCCN2C(=O)[C@H](CCC(=O)O)NC(=O)[C@@H](CCCCNC(=O)CCCC[C@@H]2SC[C@@H]3NC(=O)N[C@@H]32)NC(=O)CCCCCn2cc(nn2)C[C@H](C(N)=O)NC(=O)[C@H](CC(N)=O)NC(=O)[C@H](CCC(=O)O)NC(=O)CNC(=O)[C@@H]2CCCN2C(=O)[C@H](CCC(N)=O)NC(=O)[C@H](Cc2ccc(C(F)(F)P(=O)(O)O)cc2)NC1=O = true
3) C#CC[C@H](NC(=O)[C@H](CC(N)=O)NC(=O)[C@H](CCC(=O)O)NC(=O)CNC(=O)[C@@H]1CCCN1C(=O)[C@H](CCC(N)=O)NC(=O)[C@H](Cc1ccc(C(F)(F)P(=O)(O)O)cc1)NC(=O)[C@H](CCC(N)=O)NC(=O)[C@@H]1CCCN1C(=O)[C@H](CCC(=O)O)NC(=O)[C@H](CCCCNC(=O)CCCC[C@@H]1SC[C@@H]2NC(=O)N[C@@H]21)N=[N+]=[N-])C(N)=O (Biotin-[X1]EPQ[F2Pmp]QPGEN[Pra]-NH2) = false
